Measured values drawn from the supplement of paper PMC8728848 for this set.

// glycan array binding signal (z-score) lookup, one value per entry
# Assay target: Fuc(a1-2)Gal(b1-3)GlcNAc6S
# Experimental details: glycan array binding signal (z-score within array); higher = stronger binding
# Condition details: glycan notation: IUPAC condensed, linker removed
Shown is part of a subset that was picked to be rich in the strongest signals.
In your answer, state the number alone without any accompanying words.

[in] Identify the reported glycan array binding signal (z-score) for the following entry. rCnSL-proB (Clitocybe nebularis) (protein) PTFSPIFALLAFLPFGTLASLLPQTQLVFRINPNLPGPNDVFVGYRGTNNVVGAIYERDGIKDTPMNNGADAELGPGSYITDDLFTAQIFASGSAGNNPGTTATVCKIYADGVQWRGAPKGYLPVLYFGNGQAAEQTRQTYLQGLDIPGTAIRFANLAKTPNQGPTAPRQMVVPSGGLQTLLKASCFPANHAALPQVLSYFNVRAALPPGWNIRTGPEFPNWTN
[out] -0.282

// switching to the query binder
[in] In one line, give reported glycan array binding signal (z-score) of the entry TAL6-4LysM (Trichoderma atroviride) (protein) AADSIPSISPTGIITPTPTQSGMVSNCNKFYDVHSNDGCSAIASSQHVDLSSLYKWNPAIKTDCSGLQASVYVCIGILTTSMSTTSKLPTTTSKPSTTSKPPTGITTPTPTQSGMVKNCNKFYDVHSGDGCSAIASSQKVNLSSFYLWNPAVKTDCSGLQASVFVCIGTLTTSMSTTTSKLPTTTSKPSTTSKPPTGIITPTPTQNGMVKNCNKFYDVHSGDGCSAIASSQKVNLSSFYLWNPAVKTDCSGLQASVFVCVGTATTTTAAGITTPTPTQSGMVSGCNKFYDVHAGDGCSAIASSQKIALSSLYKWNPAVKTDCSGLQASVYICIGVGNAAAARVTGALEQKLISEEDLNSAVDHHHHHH .
[out] 1.83
